Origin of the recorded values: PubChem BioAssay

System: Human papillomavirus type 1a protein E7 (residues 44-93)
Experiment: small molecules binding HPV E7 44-93 – biochemical, small-molecule microarray, residues 44-93, 635 nm fluorescence, primary screen (AID 1108);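 note: E7 fragment applied at 1 µg/mL in TBST for 1 h at 4 C; score combines spot fluorescence with its signal to noise ratio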
Details: fluorescence 635 nm, higher = more signal
experimentalEndpoint: composite z-score
Give your answer as a number; write no unit.

# input Using known records, supply composite z-score for COC(=O)[C@@]1(Cc2ccc(F)cc2)[C@H]2c3cc(C(=O)N(C)C)n(CCc4ccc(O)c(O)c4)c3C[C@H]2CN1C(=O)c1ccccc1
# output 0.148

# input Indicate its recorded composite z-score; the compound in question is N#Cc1ccc(NN2C(C(O)C3CC=CCC3)C=CC3C(=O)N(c4ccccc4)C(=O)C32)cc1 (configuration not stated)
# output 1.48

# input Output composite z-score of CN(C)C(=O)[C@@]1(Cc2ccccc2CN=[N+]=[N-])COC(c2ccc(OCCCO)cc2)=N1
# output 1.37

# input Give the reported value of composite z-score for this record: O=C(NC1CC1)[C@@H]1c2ccccc2C(=O)N(Cc2cc(C(F)(F)F)cc(C(F)(F)F)c2)[C@H]1c1ccc(CO)cc1
# output 1.35

# input Fill in reported composite z-score for this entry: CN(C)CCCNC(=O)[C@@H]1c2ccccc2C(=O)N(Cc2ccccc2C(F)(F)F)[C@H]1c1ccc(CO)cc1
# output -0.242

# input Respond only with composite z-score recorded for CN(C)CCCC[C@@H]1NC(=O)[C@H]2C[C@@H](C(=O)O)[C@@H](c3ccc(O)cc3)N2C1=O
# output 1.55

# input Could you please provide reported composite z-score for COc1ccc([Si](C)(C)[C@@H]2[C@@H](CC(=O)N(CCO)Cc3ccccc3)O[C@]3(C(=O)N(Cc4ccc(N5C(=O)c6cccc7cccc5c67)cc4)c4ccccc43)[C@H]2C)cc1 ? Thanks!
# output 0.749
